Assay Method Text: Primary qHTS to identify inhibitors of SARS-CoV-2 cell entry (AID 1645846); further: nearly all actives have a fitted effect of over 45% in size
Experimental Setup: SARS-CoV-2 pseudovirus cell entry assay, luminescence; at 57.1 µM (top of the series) unless noted
Results filed as inconclusive are left out.
Overview of reported activity change, negative = inhibition across a group of compounds:
Observed Property: activity change, negative = inhibition (%)

>>> quantitative_result("COCCc1ccc(OCC(O)CNC(C)C)cc1 (stereo unspecified)")
-1.24
>>> quantitative_result("COc1ccc(-c2cc(C(F)F)nn2-c2ccc(S(N)(=O)=O)cc2)cc1F")
1.11
>>> quantitative_result("CCN(CC)CCOc1ccc(/C(=C(\\Cl)c2ccccc2)c2ccccc2)cc1")
4.38
>>> quantitative_result("CCC1NC(=O)c2cc(S(N)(=O)=O)c(Cl)cc2N1 (stereo unspecified)")
-25.9
>>> quantitative_result("CC1(C)S[C@@H]2[C@H](N=CN3CCCCCC3)C(=O)N2[C@H]1C(=O)O")
0.13
>>> quantitative_result("CC(=O)O[C@]1(C(C)=O)CC[C@H]2[C@@H]3C=C(Cl)C4=CC(=O)CC[C@]4(C)[C@H]3CC[C@@]21C")
-27.6
>>> quantitative_result("CC1(C)OC[C@@H](COC(=O)CCc2ccc(OC[C@@H](O)CNCCNC(=O)N3CCOCC3)cc2)O1")
-4.74
>>> quantitative_result("CCN(CC)C(=O)N1CCN(C)CC1")
-24.4
>>> quantitative_result("O=C(c1ccc(F)cc1)C1CCN(CCn2c(=O)[nH]c3ccccc3c2=O)CC1")
-1.25
>>> quantitative_result("NC(N)=N/N=C/c1c(Cl)cccc1Cl")
-25.8

###

Assay Method Text: qHTS for Inhibitors of the Functional Ribonucleoprotein Complex (vRNP) of Lymphocytic Choriomeningitis Arenaviruses (LCMV): Viability assay - alamar blue signal for LCMV Primary Screen (AID 1347085); further: nearly all actives have a fitted effect of over 80% in size
Experimental Setup: alamar blue viability counter-screen, LCMV vRNP screen cells; series mostly up to 57.5 µM
Records with an inconclusive call do not appear. Activity calls are given as the source filed them. Calls follow the shape of the full dose curve; tested in HEK293 reporter line.
Classes used: T (active), F (inactive)

>>> label("CCCOC(=O)c1ccc(N)cc1")
"F"
>>> label("CC(C)[N+](C)(CCC(C(N)=O)(c1ccccc1)c1ccccc1)C(C)C")
"F"
>>> label("CC1(C)OC[C@@H](COC(=O)CCc2ccc(OC[C@@H](O)CNCCNC(=O)N3CCOCC3)cc2)O1")
"F"
>>> label("CNC(=O)Oc1cccc2ccccc12")
"F"
>>> label("Nc1nc(=O)n([C@@H]2O[C@H](CO)[C@@H](O)[C@@H]2F)cc1I")
"F"
>>> label("C[N+](C)(C)CCOC(=O)CCC(=O)OCC[N+](C)(C)C")
"F"
>>> label("CC1=C(C(=O)OC(C)C)C(c2cccc([N+](=O)[O-])c2)C(C(=O)OC2CN(C(c3ccccc3)c3ccccc3)C2)=C(N)N1 (centres undefined)")
"F"
>>> label("CCCCCOc1ccccc1/C(=C\\SC)n1ccnc1")
"F"
>>> label("COc1ccc(CN2CCNCC2)c(OC)c1OC")
"F"
>>> label("CC(CC(C(N)=O)(c1ccccc1)c1ccccc1)N(C)C (centres undefined)")
"F"
>>> label("CCOC(=O)c1cncn1C(C)c1ccccc1 (centres undefined)")
"F"
>>> label("CNC[C@H](O)c1ccc(O)c(O)c1")
"F"
>>> label("CCOC(=O)NC(C)(C)Cc1ccc(Cl)cc1")
"F"
>>> label("Cc1cc(C(C)(C)C)cc(C)c1CC1=NCCN1")
"F"
>>> label("O=C1c2ccccc2C(=O)C1c1ccc(Br)cc1")
"F"
>>> label("CO[C@@H]1[C@@H](OC)[C@H](C)[C@@](O)(CC(=O)O)O[C@H]1[C@H](C)[C@H]1O[C@@]2(CC[C@@](C)([C@H]3CC[C@@](C)([C@@H]4O[C@@H]([C@H]5O[C@](C)(O)[C@H](C)C[C@@H]5C)C[C@@H]4OC4C[C@H](OC)[C@@H](OC)[C@H](C)O4)O3)O2)C[C@H](O)[C@H]1C (some centres undefined)")
"T"
>>> label("OC(CCCN1CCCCC1)(c1ccccc1)c1ccccc1")
"F"
>>> label("CCN(CC)CCCN(c1ccccc1)C1Cc2ccccc2C1")
"F"
>>> label("CC1(C)OC(=O)Nc2ccc(Br)cc21")
"F"
>>> label("Cn1cc(C(=O)[C@@H]2CCc3nc[nH]c3C2)c2ccccc21")
"F"
>>> label("COC(=O)C1=C(C)NC(C)=C(C(=O)OCCN2CCN(C(c3ccccc3)c3ccccc3)CC2)C1c1cccc([N+](=O)[O-])c1 (centres undefined)")
"F"
>>> label("Cc1cccc(OCC(O)CNC(C)(C)C)c1C (centres undefined)")
"F"
>>> label("O=C1C(c2[nH]c3ccccc3c2O)=Nc2ccccc21")
"F"
>>> label("O=c1oc2c(O)c(O)cc3c(=O)oc4c(O)c(O)cc1c4c23")
"F"

###

Experimental Setup: Ebola virus entry assay, blue channel fluorescence
The source made the active and inactive calls.
Observed Property: AC50

>>> result("CCOC(=O)OC(C)OC1=C(C(=O)Nc2ccccn2)N(C)S(=O)(=O)c2ccccc21 (stereo not drawn)")
"inactive"
>>> result("NS(=O)(=O)c1ccc(N2CCCCS2(=O)=O)cc1")
"inactive"
>>> result("C[C@H]1C(=O)O[C@@H]2CCN3CC=C(COC(=O)[C@](C)(O)[C@]1(C)O)[C@H]23")
"inactive"
>>> result("O=c1[nH]c2cc(C(F)(F)F)c(N3CCOCC3)cc2n(CP(=O)(O)O)c1=O")
"inactive"
>>> result("O=C(CCCN1CCC(O)(c2ccc(Br)cc2)CC1)c1ccc(F)cc1")
"7.94 µM (active)"
>>> result("CCN(CC)C(=O)N1CCN(C)CC1")
"inactive"
>>> result("Cc1c(N)cccc1C(F)(F)F")
"inactive"
>>> result("CC(C)(C)c1ccc(C(=O)CCCCl)cc1")
"inactive"
>>> result("O=C(O)Cc1ccc2c(c1)C(=O)c1ccccc1CO2")
"inactive"
>>> result("COc1ccc2c(C(=O)c3ccc(Cl)cc3)c(C)n(CC(=O)O)c2c1")
"inactive"
>>> result("COC(=O)C1=C(C)NC(COC(N)=O)=C(C(=O)OC(C)C)C1c1cccc(Cl)c1Cl (stereo not drawn)")
"inactive"
>>> result("CC(=O)N(CC(O)CN(C(C)=O)c1c(I)c(C(=O)NCC(O)CO)c(I)c(C(=O)NCC(O)CO)c1I)c1c(I)c(C(=O)NCC(O)CO)c(I)c(C(=O)NCC(O)CO)c1I (stereo not drawn)")
"inactive"
>>> result("NNC(=O)CP(=O)(c1ccccc1)c1ccccc1")
"inactive"
>>> result("O=C(O)CCc1nc(-c2ccccc2)c(-c2ccccc2)o1")
"inactive"
>>> result("O=C1OC2(c3ccccc31)c1cc(I)c(O)c(I)c1Oc1c2cc(I)c(O)c1I")
"inactive"
>>> result("CCOC(=O)Nc1ccc(NCc2ccc(F)cc2)nc1N")
"inactive"
>>> result("Cc1cc(=O)oc2cc(O)ccc12")
"inactive"
>>> result("CCOC(=O)C1=C(C)NC(C)=C(C(=O)OCC)C1c1ccccc1/C=C/C(=O)OC(C)(C)C")
"inactive"
>>> result("NC(N)=NCCC[C@H](N)C(=O)O")
"inactive"
>>> result("CC(=O)OCC(=O)NCCCOc1cccc(CN2CCCCC2)c1")
"inactive"
>>> result("Cc1cccc(N(C)C(=S)Oc2ccc3c(c2)CCC3)c1")
"39.8 µM (active)"
>>> result("CCCC[N+]1(C)[C@@H]2CC(OC(=O)[C@H](CO)c3ccccc3)C[C@H]1[C@@H]1O[C@@H]12 (stereo partly drawn)")
"inactive"
>>> result("O=C(Nc1ccc(S(=O)(=O)N2CCOCC2)cc1)c1cc(Cl)ccc1NS(=O)(=O)c1ccc(Cl)s1")
"inactive"
>>> result("Cc1c(Cl)c(=O)oc2cc(OP(=O)(OCCCl)OCCCl)ccc12")
"inactive"
>>> result("Nc1ccc(S(=O)(=O)Nc2nccs2)cc1")
"inactive"
>>> result("CCN(CC)CCCC(C)Nc1c2ccc(Cl)cc2nc2ccc(OC)cc12 (stereo not drawn)")
"25.1 µM (active)"
>>> result("CCCCC(=O)O[C@]1(C(=O)CO)CC[C@H]2[C@@H]3CCC4=CC(=O)CC[C@]4(C)[C@H]3[C@@H](O)C[C@@]21C")
"inactive"
>>> result("CCOC(=O)[C@H](CCc1ccccc1)N[C@@H](C)C(=O)N1C(=O)N(C)C[C@H]1C(=O)O")
"inactive"
>>> result("O=C1Cc2cc(Cl)ccc2N1")
"inactive"
>>> result("CCCCOc1ccc(C(=O)CCN2CCCCC2)cc1")
"25.1 µM (active)"
>>> result("C/C(=C(/OCCOc1ccc(Cl)cc1)c1ccc(Cl)cc1Cl)n1ccnc1")
"39.8 µM (active)"
>>> result("COc1ccc2c(c1)C(=O)N(CCc1ccc(S(=O)(=O)NC(=O)NC3CCCCC3)cc1)C(=O)C2(C)C")
"inactive"
>>> result("CC(=O)[C@@]1(O)CC[C@H]2[C@@H]3C[C@H](C)C4=CC(=O)CC[C@]4(C)[C@H]3CC[C@@]21C")
"inactive"
>>> result("CN1[C@@H]2CC[C@H]1CC(OC(=O)c1c[nH]c3ccccc13)C2 (stereo partly drawn)")
"inactive"
>>> result("Cc1ccc2c(Br)cc(Br)c(O)c2n1")
"35.5 µM (active)"
>>> result("CN1CCCN(C(c2ccccc2)c2ccc(Cl)cc2)CC1 (stereo not drawn)")
"3.16 µM (active)"
>>> result("CC(C)NCC(O)COc1ccc(COCCOC(C)C)cc1 (stereo not drawn)")
"15.8 µM (active)"
>>> result("N[C@H](C(=O)O)c1ccc(O)cc1")
"inactive"
>>> result("CCOc1ccc(C(=O)OCCN(CC)CC)cc1")
"inactive"
>>> result("c1cnc(N2CCN(Cc3ccc4c(c3)OCO4)CC2)nc1")
"inactive"
>>> result("CCc1ccc(C(=O)C(C)CN2CCCCC2)cc1 (stereo not drawn)")
"39.8 µM (active)"
>>> result("O=C(O)CNC(=O)c1ccccc1I")
"inactive"
>>> result("CC1(C)[C@@H](OC(=O)CCC(=O)O)CC[C@]2(C)[C@H]3C(=O)C=C4[C@@H]5C[C@@](C)(C(=O)O)CC[C@]5(C)CC[C@@]4(C)[C@]3(C)CC[C@@H]12")
"inactive"
